Measured values drawn from ChEMBL document CHEMBL4725372 for this set.

Test: Half life in PBS by LC-MS/MS analysis
Type: physicochemical
half-life for assorted compounds
value.type: half-life

query.smiles	value.type	experimental.value
CCCCN(Cc1ccc(C(=O)NO)cc1)C(=O)Nc1ccccc1	half-life	> 24 h
O=C(NO)c1ccc(CN(CCCCO)C(=O)Nc2ccccc2)cc1	half-life	> 24 h
NCc1ccc(NC(=O)N(CCCCO)Cc2ccc(C(=O)NO)cc2)cc1	half-life	> 24 h
CCCCN(Cc1ccc(C(=O)NO)cc1)C(=O)Nc1ccc(CN)cc1	half-life	> 24 h

---

Assay: Half life in rat liver microsome at 10 uM by LC-MS/MS analysis
Type: ADME
Conditions: liver microsomes

compound	half-life at 10 µM, h
CCCCN(Cc1ccc(C(=O)NO)cc1)C(=O)Nc1ccccc1 [NEXTURASTAT A]	7.05
O=C(NO)c1ccc(CN(CCCCO)C(=O)Nc2ccccc2)cc1	3.3
NCc1ccc(NC(=O)N(CCCCO)Cc2ccc(C(=O)NO)cc2)cc1	2.95
CCCCN(Cc1ccc(C(=O)NO)cc1)C(=O)Nc1ccc(CN)cc1	2.88
